biological target: BTK (Homo sapiens, UniProt Q06187); test: biochemical; settings: read-out: BTK inhibition (%), 0.75 uM BTK, […] probe 3l, 15 min preincubation
Sequence (Q06187 402-655 limits assumed): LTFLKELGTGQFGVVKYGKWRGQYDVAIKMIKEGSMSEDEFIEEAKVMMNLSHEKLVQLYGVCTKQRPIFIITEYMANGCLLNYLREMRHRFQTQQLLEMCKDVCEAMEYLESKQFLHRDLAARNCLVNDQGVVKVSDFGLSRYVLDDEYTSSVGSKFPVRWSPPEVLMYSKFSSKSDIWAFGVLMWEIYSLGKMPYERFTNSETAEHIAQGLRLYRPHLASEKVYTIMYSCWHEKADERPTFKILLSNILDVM
ASSAY METRIC: inhibition at 10 µM (%)
Report the value in % with no unit label.

1. C#CCN[C@@H]1CCc2ccccc21 [PCM-0090264] | -9.3
2. CCN(CC)CCN(Cc1ccc(-c2ccc(C(F)(F)F)cc2)cc1)C(=O)Cn1c(SCc2ccc(F)cc2)nc(=O)c2c1CCC2 [PCM-0095746] | -30.1
3. Cc1cc(N2C[C@@H](C)N[C@@H](C)C2)ncc1-c1ccc(-c2nc3c(ccn3C)c(=O)[nH]2)cc1 [PCM-0215615] | 7.7

## Input Quick one: inhibition at 10 µM for CC1(C)S[C@@H]2[C@H](NC(=O)[C@H](N)c3ccccc3)C(=O)N2[C@H]1C(=O)O [PCM-0214636] ?
## Output -1.6

## Input Quick one: inhibition at 10 µM for Cc1cc(O)c(-c2ccc([C@@H](C)CN(C)C)cc2)c2c1[nH]c(=O)c1sccc12 [PCM-0215805] ?
## Output 38.6

## Input Quick one: inhibition at 10 µM for COc1cc(C=O)c([N+](=O)[O-])cc1OC [PCM-0216182] ?
## Output -13.9

###

biological target: BTK (Homo sapiens); experiment: biochemical; details: read-out: BTK inhibition (%), 0.75 uM BTK, […] probe 3l, 15 min preincubation
ASSAY METRIC: inhibition at 10 µM (%)
Report the value in % with no unit label.

1) O=C(Nc1ccccc1-c1cn2c(CN3CC[C@@H](O)C3)csc2n1)c1ccc2ccccc2c1 | -1.5
2) NC1(Cc2ccc(Cl)cc2)CCN(c2ncnc3[nH]ccc23)CC1 | 13.8
3) CN[C@@H]1[C@@H](O)[C@@H](O[C@@H]2[C@@H](O)[C@H](O[C@H]3O[C@H](CN)[C@@H](O)[C@H](O)[C@H]3O)[C@@H](N)C[C@H]2NC(=O)[C@@H](O)CN)OC[C@]1(C)O | 4.3
4) Nc1ccn([C@@H]2O[C@H](COP(=O)(O)O)[C@@H](O)[C@H]2O)c(=O)n1 | -0.9
5) O=c1[nH]c(=O)n([C@H]2C[C@H](O)[C@@H](CO)O2)cc1Br | 3.9

## Input Fill in the recorded inhibition at 10 µM for this molecule, with BTK (Homo sapiens) as test system: CC(C)c1ccc(NC(=O)Cn2cnc3c2c(=O)n(C)c(=O)n3C)cc1
## Output -12.5

## Input Fill in the recorded inhibition at 10 µM for this molecule, with BTK (Homo sapiens) as test system: CC1(C)CC[C@]2(C(=O)O)CC[C@]3(C)C(=CC[C@@H]4[C@@]5(C)CC[C@H](O[C@@H]6O[C@H](C(=O)O)[C@@H](O)[C@H](O[C@@H]7OC[C@@H](O)[C@H](O)[C@H]7O)[C@H]6O)C(C)(C)[C@@H]5CC[C@]43C)[C@@H]2C1
## Output 3.9

## Input Fill in the recorded inhibition at 10 µM for this molecule, with BTK (Homo sapiens) as test system: Nc1c2c(nc3ccccc13)CCCC2
## Output -7.8

## Input Fill in the recorded inhibition at 10 µM for this molecule, with BTK (Homo sapiens) as test system: COc1cccc(CCc2ccccc2OCC(CN(C)C)OC(=O)CCC(=O)O)c1 (centres unmarked)
## Output -22.6

## Input Fill in the recorded inhibition at 10 µM for this molecule, with BTK (Homo sapiens) as test system: CCN(CCO)CCCOc1ccc2c(Nc3cc(CC(=O)Nc4cccc(F)c4)[nH]n3)ncnc2c1
## Output 66.9

## Input Fill in the recorded inhibition at 10 µM for this molecule, with BTK (Homo sapiens) as test system: O=C(Cn1ccnc1[N+](=O)[O-])NCc1ccccc1
## Output 3.1

## Input Fill in the recorded inhibition at 10 µM for this molecule, with BTK (Homo sapiens) as test system: CC1OC2OC3C(OCC(O)C3O)OC(=O)C34CCC(C)(C)CC3C3=CCC5C6(C)CC(O)C(OC7OC(CO)C(O)C(O)C7OC7OCC(OC(=O)CC(C)(O)CC(=O)OC1C(OC1OCC(O)C(O)C1O)C2O)C(O)C7O)C(C)(CO)C6CCC5(C)C3(C)CC4O (centres unmarked)
## Output -1.5

## Input Fill in the recorded inhibition at 10 µM for this molecule, with BTK (Homo sapiens) as test system: O=C(O)[C@H]1O[C@@H](Oc2cc3oc(-c4ccccc4)cc(=O)c3c(O)c2O)[C@H](O)[C@@H](O)[C@@H]1O
## Output 14.8

## Input Fill in the recorded inhibition at 10 µM for this molecule, with BTK (Homo sapiens) as test system: C[C@]1(COc2ccc(N3CCC(Oc4ccc(OC(F)(F)F)cc4)CC3)cc2)Cn2cc([N+](=O)[O-])nc2O1
## Output -1.5

###

inhibition at 10 µM values by entry
target: UniProt:Q06187; assay: biochemical; conditions: read-out: BTK inhibition (%), 0.75 uM BTK, […] probe 3l, 15 min preincubation
Report the value in % with no unit label.

1. CC(C)=CCOc1ccc(/C=C/C(=O)c2ccc(OCC=C(C)C)cc2OCC(=O)O)cc1 | 16.2
2. COc1ccc(CCC(=O)c2c(O)cc(O[C@@H]3O[C@H](CO)[C@@H](O)[C@H](O)[C@H]3O[C@@H]3O[C@@H](C)[C@H](O)[C@@H](O)[C@H]3O)cc2O)cc1O | 9.3

Okay, next one:
## Input Quick one: inhibition at 10 µM for CCCCC[C@H](O)/C=C/[C@H]1[C@H](O)CC(=O)[C@@H]1CCCCCCC(=O)O ?
## Output 6.9

###

target: BTK (Homo sapiens, UniProt Q06187); test: biochemical; details: read-out: BTK inhibition (%), 0.75 uM BTK, […] probe 3l, 15 min preincubation
ASSAY METRIC: inhibition at 10 µM

1. CN(CC(=O)N(Cc1ccc(C2CCCCC2)cc1)c1ccc(C(=O)NO)cc1)S(=O)(=O)c1c(F)c(F)c(F)c(F)c1F [PCM-0215779] | 19.3%
2. O=c1cc(-c2ccc(O)cc2)oc2cc(O)cc(O)c12 [PCM-0064643] | 63.8%
3. COc1cc(F)c(F)c(Nc2ccc(I)cc2F)c1NS(=O)(=O)C1(C[C@H](O)CO)CC1 [PCM-0214795] | 36.6%
4. O=C(O)CC(O)(CC(=O)OCc1ccc(O[C@@H]2O[C@H](CO)[C@@H](O)[C@H](O)[C@H]2O)cc1)C(=O)OCc1ccc(O[C@@H]2O[C@H](CO)[C@@H](O)[C@H](O)[C@H]2O)cc1 (stereo partly shown) [PCM-0216319] | -28.6%
5. NC(=O)c1cc(F)cc2c1C(=O)N(C1CCN(C3CCC(F)(F)CC3)CC1)C2 [PCM-0215809] | 4.6%
6. CC(=O)O[C@H](CC=C(C)C)C1=CC(=O)c2c(O)ccc(O)c2C1=O [PCM-0216503] | 35.7%

Okay, next one:
## Input Quick one: inhibition at 10 µM for CCCC(CCC)C(=O)OC1C[C@H]2CC[C@@H](C1)[N+]2(C)C (stereo partly shown) [PCM-0215249] ?
## Output -37.4%

###

molecular target: BTK (Homo sapiens, UniProt Q06187); assay: biochemical; conditions: read-out: BTK inhibition (%), 0.75 uM BTK, […] probe 3l, 15 min preincubation
ASSAY METRIC: inhibition at 10 µM (%)
Report the value in % with no unit label.

Reference set, count: 5
1. COc1nc(N)nc2c1ncn2[C@@H]1O[C@H](CO)[C@@H](O)[C@@H]1O [PCM-0094930] | -3.1
2. OC[C@H]1O[C@H](Oc2ccc(O)cc2)[C@H](O)[C@@H](O)[C@@H]1O [PCM-0215968] | 4.6
3. O=C(c1ccc(OCCN2CCCCC2)cc1)c1c(-c2ccc(O)cc2)sc2cc(O)ccc12 [PCM-0065394] | 85.5
4. O=C(Nc1ccc(-c2ccnc(Nc3ccc(N4CCOCC4)cc3)n2)cc1)[C@@H]1CCCN1 [PCM-0215262] | 4.8
5. CCOC(=O)c1ccc(NC2CCCCC2)c(N)c1 [PCM-0095725] | 31.7

## Input Quick one: inhibition at 10 µM for CC1(N)CCN(c2cnc(-c3cccc(Cl)c3Cl)c(N)n2)CC1 [PCM-0215991] ?
## Output 14.7

## Input Quick one: inhibition at 10 µM for COc1ccccc1OCCN [PCM-0216626] ?
## Output -11.6

## Input Quick one: inhibition at 10 µM for CCCc1ncc(C[n+]2ccccc2C)c(N)n1 [PCM-0085765] ?
## Output -8.5

## Input Quick one: inhibition at 10 µM for N[C@@H](CSCCB(O)O)C(=O)O [PCM-0215605] ?
## Output -5.4
